Assay: Tissue distribution of SHR9146 in mice after oral gavage of 40 mg/kg
Type: in vivo, ICR mice
Settings: female, ICR, mouse, adrenal gland, po, 40 mg/kg, female, 1 h, 40 mg/kg oral gavage, Mean (n=3); read-out: SHR9146 concentration in Adrenal gland
Method: ICR mice with body weight 16–26 g were supplied by Shanghai Lingchang Biotechnology Co., Ltd. (animal breeding license number SCXK (Shanghai) 2013-0018) and housed at Shanghai Institute of Materia Medica, Chinese Academy of Sciences [animal use license number SYXK (Shanghai) 2015-0027]. The mice used in this study were fasted overnight for 12 h but had free access to water. Food was supplied 4 h post-dose. […]
measurementLabel: concentration at 1 h

Could you tell me which concentration at 1 h is on file for OCCn1cc(-c2ccc(N3CCC([C@H]4c5c(F)cccc5-c5cncn54)CC3)cc2)cn1 [SHR9146] ?
36600 ng/g

====

Assay: Tissue distribution of SHR9146 in mice after oral gavage of 40 mg/kg
Format: in vivo, ICR mice
Conditions: female, ICR, mouse, small intestine, po, 40 mg/kg, female, 1 h, 40 mg/kg oral gavage, Mean (n=3); read-out: SHR9146 concentration in Small intestine
measurementLabel: concentration at 1 h
Give the value; after it, write the unit.

Would you mind telling me what concentration at 1 h value was observed for OCCn1cc(-c2ccc(N3CCC([C@H]4c5c(F)cccc5-c5cncn54)CC3)cc2)cn1 ?
21600 ng/g

====

Experiment: Plasma pharmacokinetics of SHR9146 in mice (LC-MS/MS, non-compartmental analysis)
Format: in vivo, ICR mice
Conditions: both sexes, ICR, mouse, plasma, oral, 20 mg/kg, 20 mg/kg i.g. single; 1 h; read-out: plasma drug concentration, mean (n=6)
measurementLabel: concentration at 1 h (ng/mL)
Entry rule: numbers only, all in ng/mL.

Quick one: concentration at 1 h for OCCn1cc(-c2ccc(N3CCC([C@H]4c5c(F)cccc5-c5cncn54)CC3)cc2)cn1 ?
4620

====

Assay: Tissue distribution of SHR9146 in mice after oral gavage of 40 mg/kg
Assay type: in vivo, ICR mice
Details: female, ICR, mouse, plasma, po, 40 mg/kg, female, 1 h, 40 mg/kg oral gavage, Mean (n=3); read-out: SHR9146 concentration in Plasma
measurementLabel: concentration at 1 h (ng/mL)
Answer with a number only, understood to be in ng/mL.

Quick check: concentration at 1 h of OCCn1cc(-c2ccc(N3CCC([C@H]4c5c(F)cccc5-c5cncn54)CC3)cc2)cn1 ?
13100

====

Assay: Plasma pharmacokinetics of SHR9146 in mice (LC-MS/MS, non-compartmental analysis)
Format: in vivo, ICR mice
Details: both sexes, ICR, mouse, plasma, po, oral 20 to 80 mg/kg pooled; mouse plasma; n=6; read-out: t1/2, post-oral (converted)
measurementLabel: half-life (min)
Could you give me the number in min? Just the number is fine.

Record request: half-life value, item OCCn1cc(-c2ccc(N3CCC([C@H]4c5c(F)cccc5-c5cncn54)CC3)cc2)cn1
95.2

====

Assay: Tissue distribution of SHR9146 in mice after oral gavage of 40 mg/kg
Assay type: in vivo, ICR mice
Details: male, ICR, mouse, adrenal gland, po, 40 mg/kg, male, 6 h, 40 mg/kg oral gavage, Mean (n=3); read-out: SHR9146 concentration in Adrenal gland
measurementLabel: concentration at 6 h (ng/g)
Form entry: value (ng/g) — number only.

Item OCCn1cc(-c2ccc(N3CCC([C@H]4c5c(F)cccc5-c5cncn54)CC3)cc2)cn1 has what recorded concentration at 6 h?
163

====

Assay: Tissue distribution of SHR9146 in mice after oral gavage of 40 mg/kg
Assay type: in vivo, ICR mice
Conditions: female, ICR, mouse, thyroid gland, po, 40 mg/kg, female, 6 h, 40 mg/kg oral gavage, Mean (n=3); read-out: SHR9146 concentration in thyroid gland
measurementLabel: concentration at 6 h (ng/g)
Return type: number; implicit unit ng/g.

Please give the measured concentration at 6 h for this compound: OCCn1cc(-c2ccc(N3CCC([C@H]4c5c(F)cccc5-c5cncn54)CC3)cc2)cn1
378

====

Experiment: Tissue distribution of SHR9146 in mice after oral gavage of 40 mg/kg
Type: in vivo, ICR mice
Conditions: male, ICR, mouse, adrenal gland, po, 40 mg/kg, male, 6 h, 40 mg/kg oral gavage, individual mice; read-out: SHR9146 concentration in Adrenal gland
measurementLabel: concentration at 6 h (ng/g)
Answer with a number only, understood to be in ng/g.

Value lookup for concentration at 6 h; key = OCCn1cc(-c2ccc(N3CCC([C@H]4c5c(F)cccc5-c5cncn54)CC3)cc2)cn1 [SHR9146]
177

====

Assay: Tissue distribution of SHR9146 in mice after oral gavage of 40 mg/kg
Type: in vivo, ICR mice
Conditions: female, ICR, mouse, stomach, po, 40 mg/kg, female, 24 h, 40 mg/kg oral gavage, Mean (n=3); read-out: SHR9146 concentration in Stomach
measurementLabel: concentration at 24 h (ng/g)
Supply the numeric figure in ng/g, leaving out any unit text.

Given OCCn1cc(-c2ccc(N3CCC([C@H]4c5c(F)cccc5-c5cncn54)CC3)cc2)cn1 [SHR9146] , state its recorded concentration at 24 h.
848

====

Assay: Tissue distribution of SHR9146 in mice after oral gavage of 40 mg/kg
Assay type: in vivo, ICR mice
Conditions: female, ICR, mouse, liver, po, 40 mg/kg, female, 24 h, 40 mg/kg oral gavage, Mean (n=3); read-out: SHR9146 concentration in Liver
measurementLabel: concentration at 24 h (ng/g)
The answer is to be given in ng/g; state only the numeric part.

Looking for the measured concentration at 24 h of OCCn1cc(-c2ccc(N3CCC([C@H]4c5c(F)cccc5-c5cncn54)CC3)cc2)cn1 , can you help?
37

====

Assay: Plasma pharmacokinetics of SHR9146 in mice (LC-MS/MS, non-compartmental analysis)
Assay type: in vivo, ICR mice
Conditions: both sexes, ICR, mouse, plasma, oral, 80 mg/kg, 80 mg/kg i.g. single; 10 h; read-out: plasma drug concentration, mean (n=6)
measurementLabel: concentration at 10 h (ng/mL)
Give your result in ng/mL as a bare value.

Fill in the blank: the reported concentration at 10 h of OCCn1cc(-c2ccc(N3CCC([C@H]4c5c(F)cccc5-c5cncn54)CC3)cc2)cn1 is ____.
1700

====

Assay: Tissue distribution of SHR9146 in mice after oral gavage of 40 mg/kg
Type: in vivo, ICR mice
Conditions: male, ICR, mouse, lung, po, 40 mg/kg, male, 3 h, 40 mg/kg oral gavage, Mean (n=3); read-out: SHR9146 concentration in Lung
measurementLabel: concentration at 3 h (ng/g)
Report the value in ng/g with no unit label.

Record request: concentration at 3 h value, item OCCn1cc(-c2ccc(N3CCC([C@H]4c5c(F)cccc5-c5cncn54)CC3)cc2)cn1
5160

====

Test: Tissue distribution of SHR9146 in mice after oral gavage of 40 mg/kg
Type: in vivo, ICR mice
Conditions: male, ICR, mouse, heart, po, 40 mg/kg, male, 6 h, 40 mg/kg oral gavage, individual mice; read-out: SHR9146 concentration in Heart
measurementLabel: concentration at 6 h
Param answer (str): number followed by unit.

Item OCCn1cc(-c2ccc(N3CCC([C@H]4c5c(F)cccc5-c5cncn54)CC3)cc2)cn1 [SHR9146] has what recorded concentration at 6 h?
61 ng/g

====

Assay: Plasma pharmacokinetics of SHR9146 in mice (LC-MS/MS, non-compartmental analysis)
Type: in vivo, ICR mice
Settings: both sexes, ICR, mouse, plasma, oral, 20 mg/kg, 20 mg/kg i.g. single; 0.25 h; read-out: plasma drug concentration, mean (n=6)
measurementLabel: concentration at 0.25 h (ng/mL)
Kindly provide the numeric value in ng/mL only, without the unit symbol.

Endpoint output: concentration at 0.25 h of OCCn1cc(-c2ccc(N3CCC([C@H]4c5c(F)cccc5-c5cncn54)CC3)cc2)cn1 . Value?
7500

====

Experiment: Tissue distribution of SHR9146 in mice after oral gavage of 40 mg/kg
Format: in vivo, ICR mice
Settings: female, ICR, mouse, skin, po, 40 mg/kg, female, 1 h, 40 mg/kg oral gavage, Mean (n=3); read-out: SHR9146 concentration in Skin
measurementLabel: concentration at 1 h (ng/g)
Express it in ng/g; write the number only.

Which concentration at 1 h reading was recorded for the compound OCCn1cc(-c2ccc(N3CCC([C@H]4c5c(F)cccc5-c5cncn54)CC3)cc2)cn1 ?
11100

====

Experiment: Tissue distribution of SHR9146 in mice after oral gavage of 40 mg/kg
Format: in vivo, ICR mice
Settings: female, ICR, mouse, small intestine, po, 40 mg/kg, female, 3 h, 40 mg/kg oral gavage, individual mice; read-out: SHR9146 concentration in Small intestine
measurementLabel: concentration at 3 h (ng/g)
Answer with a number only, understood to be in ng/g.

What concentration at 3 h value was documented for this compound, OCCn1cc(-c2ccc(N3CCC([C@H]4c5c(F)cccc5-c5cncn54)CC3)cc2)cn1 ?
14600
